Test: MDCK-wt permeability assay
Assay type: in vitro ADME, canine
Conditions: dog
recorded endpoint: Papp A→B at 2 h, 10 µM
Show the value, then the unit it is measured in.

Which Papp A→B at 2 h, 10 µM reading was recorded for the compound Fc1ccc(Nc2c(-c3ccccn3)nc3ccc(C4CC4)cn23)cc1 [Compound 3p] ?
16.7 ×10⁻⁶ cm/s

====

Test: Human liver microsome intrinsic clearance
Type: in vitro ADME
Conditions: human, human liver microsomes, pH 7.4, HLM clint
Exercise: for every item that follows, state its recorded microsomal CLint at 3 µM.
One number for each entry, in µL/min/mg.

For orientation, consider the following solved cases.
>>> df
                                   compound  assay_value
0  Fc1ccc(Nc2c(-c3ccccn3)nc3cccnn23)cc1 [Compound 3d]          212
1  COc1cccc2nc(-c3ccccn3)c(Nc3ccc(F)cc3)n12 [Compound 3c]           28

// lookup microsomal CLint at 3 µM for Fc1ccc(Nc2c(-c3ccccn3)nc3ccccn23)cc1 [Compound 3a]
137

FYI, the data here is from paper PMC10425983.
